- Assayed system: acetylcholinesterase (AChE) from electrophorus electricus (Electrophorus electricus, UniProt O42275)
- Construct: purchased Sigma-Aldrich
- Sequence (O42275 24-633): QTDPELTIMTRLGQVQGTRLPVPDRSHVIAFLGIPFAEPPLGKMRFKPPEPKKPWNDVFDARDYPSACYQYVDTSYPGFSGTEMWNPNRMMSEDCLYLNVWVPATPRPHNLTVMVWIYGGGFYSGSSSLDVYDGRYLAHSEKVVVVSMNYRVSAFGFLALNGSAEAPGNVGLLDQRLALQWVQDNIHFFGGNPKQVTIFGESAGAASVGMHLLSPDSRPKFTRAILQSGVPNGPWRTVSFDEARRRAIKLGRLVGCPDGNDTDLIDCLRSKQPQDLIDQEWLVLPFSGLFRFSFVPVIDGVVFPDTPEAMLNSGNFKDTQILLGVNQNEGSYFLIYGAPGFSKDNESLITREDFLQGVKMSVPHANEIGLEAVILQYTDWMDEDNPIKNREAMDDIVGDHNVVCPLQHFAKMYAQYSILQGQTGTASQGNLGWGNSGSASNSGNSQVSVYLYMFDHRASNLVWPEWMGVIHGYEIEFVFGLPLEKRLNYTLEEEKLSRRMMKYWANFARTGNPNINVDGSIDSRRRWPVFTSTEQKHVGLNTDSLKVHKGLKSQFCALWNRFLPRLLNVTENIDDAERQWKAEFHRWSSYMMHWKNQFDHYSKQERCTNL
- Assay comment: biochemical
- Assay type: biochemical
- Measurement setup: ratio of the IC50 values (BuChE/AChE), definition not given
Measurement kind: Selectivity AChE
Give bare numbers.

Record excerpt, results attached:
- Compound: "O=C1c2ccccc2C(=O)N1CCN1CCc2ccccc2C1"
  Selectivity AChE: 45.71
- Compound: "O=C1c2ccccc2C(=O)N1CCN1CCN(c2ccc(C(F)(F)F)cc2)CC1"
  Selectivity AChE: 10.70
- Compound: "O=C1c2ccccc2C(=O)N1CCN1CCN(C(c2ccccc2)c2ccccc2)CC1"
  Selectivity AChE: 10.95
- Compound: "O=C1c2ccccc2C(=O)N1CCN1CCN(c2ccccc2)CC1"
  Selectivity AChE: 22.02

Please examine the following record next.
Req: Sample O=C1c2ccccc2C(=O)N1CCN1CCN(c2ncccn2)CC1 — what was its Selectivity AChE?
Resp: 17.66

These data points were gathered from paper PMC11313788.
